Where do the numbers come from? From patent US10968232B2.

Assignment: determine reported pEC50 for the given compounds.
# measured_on: human GPR40 (Homo sapiens)
# Construct: expressed in transfected cells
# Sequence (O14842 whole entry): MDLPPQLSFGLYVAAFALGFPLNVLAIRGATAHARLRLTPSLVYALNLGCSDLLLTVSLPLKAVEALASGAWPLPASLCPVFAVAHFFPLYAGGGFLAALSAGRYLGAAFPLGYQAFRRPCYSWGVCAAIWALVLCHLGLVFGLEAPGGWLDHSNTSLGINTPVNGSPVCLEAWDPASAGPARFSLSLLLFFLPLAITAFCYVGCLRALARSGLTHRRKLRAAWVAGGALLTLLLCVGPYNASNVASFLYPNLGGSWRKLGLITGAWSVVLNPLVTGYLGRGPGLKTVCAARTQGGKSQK
# assay_name: Inositol Phosphate Turnover (IP1) Assay
# Type: cell-based
# assay_context: HEK cells stably expressing human GPR40; CisBio IP-One kit; 60 minutes at 37 degrees; read-out: Human IP1 EC50
One number for each entry, as −log10 of the molar value.

Field: example entries. Status: answers known.
| compound | pEC50 |
| --- | --- |
| CC(c1cc(Cl)ccc1OC(F)F)N1CCC2(CCc3ccc([C@H](C4CC4)[C@H](C)C(=O)O)c(F)c3O2)CC1 (single isomer, unassigned) [Example 34] | 8.05 |
| C[C@H](C(=O)O)[C@H](c1ccc2c(c1)OC1(CC2)CC(N[C@H](C)c2cc(C(F)(F)F)ccc2C(F)(F)F)C1)C1CC1 (stereo partly drawn) [Example 91] | 8.06 |
| CC(c1cc(C(F)(F)F)ccc1F)N1CCC2(CCc3ccc([C@H](C4CC4)[C@H](C)C(=O)O)cc3O2)CC1 (mixture of isomers) | 7.96 |
| Cc1noc(C)c1-c1ccc(OC(F)(F)F)c(C(C)N2CCC3(CCc4ccc([C@H](C5CC5)[C@H](C)C(=O)O)cc4O3)CC2)c1 (stereo partly drawn) | 6.96 |
| C[C@H](C(=O)O)[C@H](c1ccc2c(c1)OC1(CC2)CCN(S(=O)(=O)c2ccc(C(F)(F)F)cc2Cl)CC1)C1CC1 | 7.01 |

Query :: Determine its reported pEC50: CC(c1cc(F)cc(F)c1Cl)N1CCC2(CCc3ccc([C@H](C4CC4)[C@H](C)C(=O)O)cc3O2)CC1 (single isomer, unassigned) [Example 18]
Result :: 7.34
